Sourced from the NIST ThermoML archive (doi:10.1016/j.jct.2019.02.011)

settings: 303.15 K; 35000 kPa; Liquid; Vibrating tube method
experimentalEndpoint: mass density (kg/m3)
# value in kg/m3; strip the unit string

q: Complete the entry with mass density for CCCO
a: 819.75

q: For CCO , write its mass density.
a: 808.29

q: Query mass density for COC(=O)OC [dimethyl carbonate]
a: 1086.6

q: Give me measured mass density, please, for this molecule: CO
a: 811.31

* * *

conditions: 308.15 K; 10000 kPa; Liquid; Vibrating tube method
experimentalEndpoint: mass density (kg/m3)
Hi! Could you send only the number? It should be in kg/m3, unit omitted.

q: Determine its reported mass density: COC(=O)OC [dimethyl carbonate]
a: 1059.69

q: Entry CO needs its mass density filled in; supply it.
a: 786.63

q: Look up and report measured mass density for this entry: CCCO
a: 799.21

q: Given the compound CCO , write its reported mass density.
a: 785.42

* * *

settings: 288.15 K; 35000 kPa; Liquid; Vibrating tube method
Please respond with reported mass density for every item in the list.
State the answer as a number, implicitly in kg/m3.

q: Provide only the value of recorded mass density for CCCO [propan-1-ol]
a: 830.04

q: Give the reported value of mass density for this record: COC(=O)OC [dimethyl carbonate]
a: 1104.08

q: Let me know recorded mass density for CO [methanol] , thanks.
a: 823.62

q: Give the reported value of mass density for this record: CCO [ethanol]
a: 819.12

* * *

What mass density was measured for each of the following?
conditions: 298.15 K; 5000 kPa; Liquid; Vibrating tube method
The figure you give is taken to be in kg/m3; do not add the unit.

q: Query mass density for CCCO
a: 803.49

q: Give the value of mass density reported for the following: CCO
a: 789.72

q: Tell me its mass density given CO as the entry.
a: 791.52

q: Annotate the molecule COC(=O)OC [dimethyl carbonate] with its measured mass density.
a: 1068

* * *

details: 303.15 K; 40000 kPa; Liquid; Vibrating tube method
experimentalEndpoint: mass density (kg/m3)
Answer with a number only, understood to be in kg/m3.

q: State its mass density for this molecule: CCO
a: 811.43

q: Indicate its recorded mass density; the molecule in question is CCCO
a: 822.6

q: Quick one: give measured mass density for CO
a: 814.7

q: Provide one value: measured mass density of COC(=O)OC [dimethyl carbonate]
a: 1090.4

* * *

Record form. Attribute: mass density. Fill in for each entry.
conditions: 308.15 K; 35000 kPa; Liquid; Vibrating tube method
Quick note: give the figure in kg/m3, leave out the unit.

q: Look up and report measured mass density for this entry: COC(=O)OC [dimethyl carbonate]
a: 1080.78

q: Give the reported value of mass density for this record: CO
a: 807.42

q: Provide only the value of recorded mass density for CCO
a: 804.6

q: Supply reported mass density belonging to this molecule: CCCO
a: 816.12

* * *

conditions: 303.15 K; 5000 kPa; Liquid; Vibrating tube method
experimentalEndpoint: mass density (kg/m3)
Report the value in kg/m3 with no unit label.

q: Output mass density of COC(=O)OC [dimethyl carbonate]
a: 1061.47

q: # return recorded mass density for input CO
a: 786.79

q: Give the measured mass density for CCO
a: 785.47

q: State, in one line, measured mass density of CCCO
a: 799.57

* * *

conditions: 288.15 K; 30000 kPa; Liquid; Vibrating tube method
experimentalEndpoint: mass density (kg/m3)
Respond with the bare value in kg/m3.

q: Respond only with mass density recorded for COC(=O)OC [dimethyl carbonate]
a: 1100.63

q: Return reported mass density. Input compound: CCO [ethanol]
a: 816.23

q: State, in one line, measured mass density of CO [methanol]
a: 820.09

q: Recall and state the measured mass density for CCCO [propan-1-ol] .
a: 827.24

* * *

details: 293.15 K; 40000 kPa; Liquid; Vibrating tube method
experimentalEndpoint: mass density (kg/m3)
Reply with just the number (in kg/m3).

q: Quote mass density reported for CCO please.
a: 818.81

q: Give the reported mass density for this compound. COC(=O)OC [dimethyl carbonate]
a: 1101.84

q: Quote mass density reported for CCCO please.
a: 829.09

q: For the compound CO , give its reported mass density.
a: 822.48

* * *

conditions: 288.15 K; 100 kPa; Liquid; Vibrating tube method
± gives the expanded uncertainty stated by the source.
experimentalEndpoint: mass density
# answer = value followed by unit

q: Identify mass density associated with the compound CCCO [propan-1-ol]
a: 807.62 ± 0.52 kg/m3

q: Give mass density for the following compound: CO [methanol]
a: 796.19 ± 0.51 kg/m3

q: Note down mass density recorded for COC(=O)OC [dimethyl carbonate]
a: 1076.83 ± 0.57 kg/m3

q: Specify reported mass density for the compound shown: CCO [ethanol]
a: 794.39 ± 0.52 kg/m3

* * *

conditions: 298.15 K; 10000 kPa; Liquid; Vibrating tube method
Give mass density for every item shown.
API: value field is a number in kg/m3; no unit string.

q: In one line, give reported mass density of the entry COC(=O)OC [dimethyl carbonate] .
a: 1072.51

q: Quickly give me recorded mass density for CO [methanol]
a: 795.8

q: Provide one value: measured mass density of CCCO [propan-1-ol]
a: 807.15

q: Give a short answer stating reported mass density for CCO [ethanol] .
a: 793.76

* * *

conditions: 293.15 K; 15000 kPa; Liquid; Vibrating tube method
± gives the expanded uncertainty stated by the source.
Please respond with reported mass density for every item in the list.
Answer as a quantity: numeral, then unit.

q: Please indicate mass density recorded for CCO [ethanol]
a: 801.84 ± 0.55 kg/m3

q: Name the recorded mass density of the molecule listed here: CO [methanol]
a: 804.52 ± 0.54 kg/m3

q: Please give the documented mass density of COC(=O)OC [dimethyl carbonate]
a: 1083.01 ± 0.59 kg/m3

q: Tell me measured mass density for CCCO [propan-1-ol] please.
a: 814.22 ± 0.55 kg/m3

* * *

conditions: 308.15 K; 20000 kPa; Liquid; Vibrating tube method
experimentalEndpoint: mass density (kg/m3)
State the answer as a number, implicitly in kg/m3.

q: Give the reported mass density for this molecule. CCCO [propan-1-ol]
a: 806.37

q: Using the record for COC(=O)OC [dimethyl carbonate] , state its measured mass density.
a: 1068.73

q: Retrieve mass density measured for CCO [ethanol] and print it.
a: 793.63

q: In one line, give reported mass density of the entry CO [methanol] .
a: 795.58

* * *

settings: 288.15 K; 25000 kPa; Liquid; Vibrating tube method
experimentalEndpoint: mass density (kg/m3)
Write it as a number; the unit kg/m3 goes unstated.

q: Respond only with mass density recorded for COC(=O)OC [dimethyl carbonate]
a: 1096.99

q: Provide only the value of recorded mass density for CCCO
a: 824.24

q: For CO , write its mass density.
a: 816.56

q: Return mass density (reported value) for this compound: CCO
a: 812.95

* * *

conditions: 298.15 K; 40000 kPa; Liquid; Vibrating tube method
Exercise: state measured mass density for each of the compounds provided.
Report the value in kg/m3 with no unit label.

q: Using the record for CO , state its measured mass density.
a: 818.33

q: Give the reported value of mass density for this record: COC(=O)OC [dimethyl carbonate]
a: 1096.04

q: State, in one line, measured mass density of CCCO
a: 825.81

q: # return recorded mass density for entry CCO
a: 815.03

* * *

conditions: 298.15 K; 30000 kPa; Liquid; Vibrating tube method
experimentalEndpoint: mass density (kg/m3)
Provide only the numeric value, understood in kg/m3.

q: Give a short answer stating reported mass density for CCCO [propan-1-ol] .
a: 820.04

q: Look up and report measured mass density for this entry: COC(=O)OC [dimethyl carbonate]
a: 1088.82

q: Give the value of mass density reported for the following: CCO [ethanol]
a: 808.47

q: Note mass density for the compound shown: CO [methanol]
a: 811.69

* * *

conditions: 303.15 K; 100 kPa; Liquid; Vibrating tube method
experimentalEndpoint: mass density (kg/m3)
Give your result in kg/m3 as a bare value.

q: Check the records and state mass density for COC(=O)OC [dimethyl carbonate]
a: 1056.61

q: Recall and state the measured mass density for CO [methanol] .
a: 782.07

q: For CCO [ethanol] , write its mass density.
a: 781.19

q: Please indicate mass density recorded for CCCO [propan-1-ol]
a: 795.62

* * *

conditions: 293.15 K; 100 kPa; Liquid; Vibrating tube method
experimentalEndpoint: mass density (kg/m3)
Enter your answer as a number in kg/m3; do not include the unit.

q: Kindly indicate its recorded mass density. Item: CO [methanol]
a: 791.18

q: Given COC(=O)OC [dimethyl carbonate] , respond with its mass density.
a: 1070.06

q: Using the record for CCO [ethanol] , state its measured mass density.
a: 789.87

q: Entry CCCO [propan-1-ol] needs its mass density filled in; supply it.
a: 803.57
